B1: library; a variant is named by its letters at N, in order (parent)
chain: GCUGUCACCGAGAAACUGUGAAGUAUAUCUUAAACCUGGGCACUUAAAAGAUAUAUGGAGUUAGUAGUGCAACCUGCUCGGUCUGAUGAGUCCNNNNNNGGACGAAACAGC

variants of: B1; assay: normalized RNA/DNA level with ligand (relative to sTRSVctl = 100) (log10 (% of sTRSVctl)); HEK293T; ligand: cyclic di-GMP (c-di-GMP-II aptamer); ligand concentration (+) RNA-Seq: 1 mM; higher = less ribozyme self-cleavage, higher mRNA level; conditions: reporter: mCherry (pCS4076), ligand present: yes
measure: normalized RNA/DNA level with ligand (log10)
Answer as a number with no unit attached.

{"mutation.annotation": "UAUCCA", "assay.value": 1.86}
{"mutation.annotation": "CCGGUC", "assay.value": 1.83}
{"mutation.annotation": "CAAACG", "assay.value": 1.84}

Please report normalized RNA/DNA level with ligand (log10) for the following variant: "AACAGU" 1.76

Please report normalized RNA/DNA level with ligand (log10) for the following variant: "AGUAAA" 1.62

Please report normalized RNA/DNA level with ligand (log10) for the following variant: "CCCGUA" 1.72

Please report normalized RNA/DNA level with ligand (log10) for the following variant: "GCCCAA" 1.77

Please report normalized RNA/DNA level with ligand (log10) for the following variant: "AUACGC" 1.81

Please report normalized RNA/DNA level with ligand (log10) for the following variant: "CAGAAC" 1.75

Please report normalized RNA/DNA level with ligand (log10) for the following variant: "UCGUCU" 1.89

Please report normalized RNA/DNA level with ligand (log10) for the following variant: "ACUAAC" 1.76

This collection of values is drawn from the supplement of paper PMC6757056.
